system: B16; assay: Growth inhibition of mouse B16 cells by MTT method; format: functional, cell-based
Structures can show the parent of a compound that is named as a salt.
measuredQuantity: IC50 (µM)

a: CC[C@H](C)[C@H]1O[C@@]2(C=CC[C@@H](C/C=C(\C)[C@@H](O)[C@@H](C)/C=C/C=C(\C)c3cc(O)c(C)cc3C(=O)O)O2)C=C[C@@H]1C
b: CC[C@H](C)[C@H]1O[C@@]2(CCC[C@@H](C/C=C(\C)[C@@H](O)[C@@H](C)/C=C/C=C(\C)c3cc(O)c(C)cc3C(=O)O)O2)C[C@H](O)[C@@H]1C
Just tell me: smaller IC50 value, a or b ? Reply with the label of the item you choose.
b

A: CC[C@H](C)[C@H]1O[C@@]2(CCC[C@@H](C/C=C(\C)[C@@H](O[C@H]3C[C@H](OC)[C@@H](O)[C@H](C)O3)[C@@H](C)/C=C/C=C(\C)c3cc(O)c(C)cc3C(=O)O)O2)C[C@H](O)[C@@H]1C
B: COc1cccc2c1C(=O)c1c(O)c3c(c(O)c1C2=O)C[C@@](O)(C(=O)CO)C[C@@H]3O[C@H]1C[C@H](N)[C@H](O)[C@H](C)O1 [DOXORUBICIN HYDROCHLORIDE]
Could you tell me which of A and B has the lower IC50 reading? Mark your selection by writing its label.
B
